# measurement.protocol: Primary qHTS Assay for Foot and Mouth Disease Virus Antivirals against NCGC Sytravon and CBC Compound Libraries: Renilla Luciferase Signal; note: nearly all actives have a fitted effect of over 55% in size
# test.conditions: FMDV replicon cells; series mostly up to 57.5 µM
Screen size: about 120,000 compounds; about 370 (0.31%) were called active. Roughly 4% stayed inconclusive and do not appear here. Calls come from the whole dose curve. Shown is part of a subset that was picked to be rich in actives.
Hi there, use one of these labels in your reply, thanks! y = active, n = inactive

Previously resolved entries follow.
> print(dat)
                                   compound  class.assignment
1         CCCCCCCCCOc1ccc(C(=O)c2ccccc2)cc1                 n
2  O=C(Nc1cccc(-c2nc3cc(Cl)ccc3o2)c1)c1ccccc1                 n
3  O=C(CNS(=O)(=O)c1cccs1)N1CCN(c2ccccc2Cl)CC1                 n

Query: Recorded test call requested for "O=C(OCc1cccnc1)c1nn(Cc2ccccc2)c(=O)c2ccccc12"
Result: n

Query: Recorded test call requested for COc1cccc(CNC(=O)C2CCC(CNS(=O)(=O)c3cccs3)CC2)c1 (stereo unspecified)
Result: n

Query: Recorded test call requested for Cc1ccc(C)c(N2CCN(C(=O)C3CCC(CNS(=O)(=O)c4cccs4)CC3)CC2)c1 (stereo unspecified)
Result: y
